# MEASUREMENT_TARGET: T1, Mouse Id1: Histidine (mouse, UniProt P20067-2 1-148, limits assumed)
# T1 construct: Fusion protein made in E. coli from vector pGW07; also called m-Id1-His; not shown: His tag
# T1 sequence (looked up): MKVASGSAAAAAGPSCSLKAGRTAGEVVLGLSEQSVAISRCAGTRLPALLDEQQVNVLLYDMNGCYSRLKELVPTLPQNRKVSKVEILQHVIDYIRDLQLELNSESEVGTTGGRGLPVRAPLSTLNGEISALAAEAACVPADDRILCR
# ASSAY_METHOD_TEXT: ELISA, Ab 0.005 µg/ml
OBSERVABLE: A450 (A450)
The reply should be a number in A450, with the unit left off.

{"BINDER": "rabbit monoclonal anti-mouse/human Id3, clone #BCH-4/#6-1 (antibody, V domains shown, Rabbit IgG from a rabbit hybridoma; also called m/h Id3 MoAb 6-1) VH: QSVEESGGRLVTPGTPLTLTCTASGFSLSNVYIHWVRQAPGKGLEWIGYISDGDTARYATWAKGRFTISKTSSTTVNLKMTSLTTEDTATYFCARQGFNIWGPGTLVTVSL VL: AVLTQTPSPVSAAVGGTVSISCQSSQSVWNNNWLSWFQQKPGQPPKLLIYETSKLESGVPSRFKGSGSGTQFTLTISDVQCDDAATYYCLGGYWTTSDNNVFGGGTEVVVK", "OBSERVED_RESULT": 0.047}

--- query ---
Problem: Any idea what A450 was measured for rabbit monoclonal anti-mouse/human Id3, clone #BCH-4/#42-1 (antibody, V domains shown, Rabbit IgG from a rabbit hybridoma; also called m/h Id3 MoAb 42-1) VH: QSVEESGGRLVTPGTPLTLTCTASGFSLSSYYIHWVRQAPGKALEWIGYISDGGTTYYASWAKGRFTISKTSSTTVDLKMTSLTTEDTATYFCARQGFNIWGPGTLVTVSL VL: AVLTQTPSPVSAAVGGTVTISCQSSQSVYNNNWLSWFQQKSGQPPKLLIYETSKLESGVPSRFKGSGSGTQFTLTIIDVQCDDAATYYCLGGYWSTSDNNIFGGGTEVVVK ?
Solution: 0.045

Cited source for all entries: patent US20070178531A1
